Test Target: Cyclin-dependent kinase 2/cyclin A (Homo sapiens) (UniProt P24941+P20248+P78396)
Measurement Conditions: at 1 µM
Would you mind labelling by residual activity? At or over 90% is true (1), under is false (0).

Some solved cases for reference:
**Query** Determine whether measured residual activity meets or exceeds 90% for `CNc1cc2c(Nc3cccc(Br)c3)ncnc2cn1`
**Result** true (1)

**Query** Determine whether measured residual activity meets or exceeds 90% for `CO[C@@H]1[C@H](N(C)C(=O)c2ccccc2)C[C@H]2O[C@]1(C)n1c3ccccc3c3c4c(c5c6ccccc6n2c5c31)C(=O)NC4`
**Result** false (0)

**Query** Determine whether measured residual activity meets or exceeds 90% for `Cc1cc2ncc(-c3ccccc3)nc2cc1C`
**Result** true (1)

**Query** Determine whether measured residual activity meets or exceeds 90% for `O=C(Nc1cccc(Nc2nccc(Nc3cccc(C(F)(F)F)c3)n2)c1)C1CC1`
**Result** true (1)

**Query** Determine whether measured residual activity meets or exceeds 90% for `O=c1cc(-c2cccc3c2Sc2ccccc2S3)oc(N2CCOCC2)c1`
**Result** true (1)

New cases:
**Query** Determine whether measured residual activity meets or exceeds 90% for O=C1Nc2ccccc2/C1=C1/Nc2ccccc2/C1=N\OCCC(O)CO (stereo not given)
**Result** false (0)

**Query** Determine whether measured residual activity meets or exceeds 90% for `O=C(O)c1ccc2c3c1cccc3c(=O)n1c3ccccc3nc21`
**Result** false (0)

**Query** Determine whether measured residual activity meets or exceeds 90% for `Nc1nc(Nc2ccc(S(N)(=O)=O)cc2)nn1C(=S)Nc1c(F)cccc1F`
**Result** false (0)

**Query** Determine whether measured residual activity meets or exceeds 90% for `O=C(Nc1cccc(Nc2cc(Nc3cccc(C(F)(F)F)c3)ncn2)c1)C1CC1`
**Result** true (1)

**Query** Determine whether measured residual activity meets or exceeds 90% for `Cc1cc(Nc2nc(-c3ccccc3)nc3ccccc23)n[nH]1`
**Result** false (0)

**Query** Determine whether measured residual activity meets or exceeds 90% for `Cn1nc2c3c(cccc31)C(=O)c1ccccc1-2`
**Result** false (0)

----------
Test Target: Dual specificity mitogen-activated protein kinase kinase 1 (Homo sapiens) (UniProt Q02750)
Sequence (Q02750 whole entry): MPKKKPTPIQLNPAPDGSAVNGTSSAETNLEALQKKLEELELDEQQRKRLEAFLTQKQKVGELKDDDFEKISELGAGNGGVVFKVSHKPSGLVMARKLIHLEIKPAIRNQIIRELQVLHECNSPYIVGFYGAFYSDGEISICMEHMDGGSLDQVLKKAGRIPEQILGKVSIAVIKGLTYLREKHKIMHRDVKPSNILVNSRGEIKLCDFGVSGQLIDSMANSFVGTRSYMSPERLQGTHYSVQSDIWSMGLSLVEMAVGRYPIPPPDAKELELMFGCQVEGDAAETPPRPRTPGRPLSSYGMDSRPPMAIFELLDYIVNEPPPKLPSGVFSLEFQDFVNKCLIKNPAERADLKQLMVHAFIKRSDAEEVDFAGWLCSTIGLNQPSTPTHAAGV
Measurement Conditions: at 1 µM
Description: Millipore: Percentage of residual kinase activity of MAP2K1 at 1uM relative to control. Control inhibitor: Phosphoric acid* at 0.3uM. Buffer: 50 mM Tris pH 7.5, 0.2 mM EGTA, 0.1% ?-mercaptoethanol, 0.01% Brij-35
Reported residual activity values are given for each entry in this list.
Report field: quantity (unit follows the number).

**Query** Give residual activity for the following compound: `COc1cc2ncnc(Nc3ccc(O)c(Br)c3)c2cc1OC`
**Result** 119%

**Query** Give residual activity for the following compound: `Cn1cnc2cc3c(Nc4cccc(Br)c4)ncnc3cc21`
**Result** 91%

**Query** Give residual activity for the following compound: `C[C@@H](N)[C@H]1CC[C@H](C(=O)Nc2ccncc2)CC1`
**Result** 104%

**Query** Give residual activity for the following compound: `O=C1NC(=O)c2cc(Nc3ccc(F)cc3)c(Nc3ccc(F)cc3)cc21`
**Result** 109%

**Query** Give residual activity for the following compound: `CC(=O)c1ccc(N2CCOCC2)cc1O`
**Result** 102%

**Query** Give residual activity for the following compound: `CN(C)CCCn1cc(C2=C(c3c[nH]c4ccccc34)C(=O)NC2=O)c2ccccc21`
**Result** 109%

**Query** Give residual activity for the following compound: `CCOc1cc2ncnc(Nc3cccc(Br)c3)c2cc1OCC`
**Result** 117%

**Query** Give residual activity for the following compound: `COc1cc2ncnc(Nc3ccc(Oc4ccccc4)cc3)c2cc1OC`
**Result** 89%

Please examine the following record next.
**Query** Give residual activity for the following compound: `CO[C@H]1C[C@@H]2CC[C@@H](C)[C@@](O)(O2)C(=O)C(=O)N2CCCC[C@H]2C(=O)O[C@H]([C@H](C)C[C@@H]2CC[C@@H](O)[C@H](OC)C2)CC(=O)[C@H](C)/C=C(\C)[C@@H](O)[C@@H](OC)C(=O)[C@H](C)C[C@H](C)/C=C/C=C/C=C/1C`
**Result** 132%

----------
Test Target: CDK9/cyclin T1 (Homo sapiens) (UniProt O60563+P50750)
Measurement Conditions: at 1 µM
Measured Metric: residual activity (%)
The response must be a number in % with no trailing unit.

**Query** Give residual activity for the following compound: `O=C1c2ccccc2-[n+]2ccc3c([nH]c4ccccc43)c21`
**Result** 86

**Query** Give residual activity for the following compound: `CC[n+]1c(/C=C/N(C)c2ccccc2)n(-c2ccccc2)c2ccc(-c3nc4ccccc4s3)cc21`
**Result** 119

**Query** Give residual activity for the following compound: `CNc1cc2c(Nc3cccc(Br)c3)ncnc2cn1`
**Result** 86

**Query** Give residual activity for the following compound: `O=Nc1c(-c2c(O)[nH]c3ccccc23)[nH]c2ccccc12`
**Result** 26

**Query** Give residual activity for the following compound: `Cc1cc2ncc(-c3ccccc3)nc2cc1C`
**Result** 105

**Query** Give residual activity for the following compound: `Cc1nc2cc3nc(-c4cccs4)cnc3cc2n1C`
**Result** 109

**Query** Give residual activity for the following compound: `NC(=O)c1ccc2[nH]c(-c3ccc(Oc4ccc(Cl)cc4)cc3)nc2c1`
**Result** 81

**Query** Give residual activity for the following compound: `Nc1n[nH]c2nnc(-c3c(-c4ccccc4)nn4ccccc34)cc12`
**Result** 98

**Query** Give residual activity for the following compound: `COc1cc2ncnc(Nc3ccc(O)c(Br)c3)c2cc1OC`
**Result** 91

**Query** Give residual activity for the following compound: `N#C/C(=C(\N)Sc1ccc(N)cc1)c1ccccc1C(F)(F)F`
**Result** 81

New cases:
**Query** Give residual activity for the following compound: `COc1ccc(S(=O)(=O)N(CCO)c2ccccc2CN(C)C/C=C/c2ccc(Cl)cc2)cc1`
**Result** 87

**Query** Give residual activity for the following compound: `Cc1cc(Nc2nc(-c3ccccc3)nc3ccccc23)n[nH]1`
**Result** 76

**Query** Give residual activity for the following compound: `CCN(CC)C(=O)c1ccc(Nc2nc(OCC3CCCCC3)c3nc[nH]c3n2)cc1`
**Result** 46

----------
Test Target: Tyrosine-protein kinase Mer (Homo sapiens) (UniProt Q12866)
Sequence (whole entry): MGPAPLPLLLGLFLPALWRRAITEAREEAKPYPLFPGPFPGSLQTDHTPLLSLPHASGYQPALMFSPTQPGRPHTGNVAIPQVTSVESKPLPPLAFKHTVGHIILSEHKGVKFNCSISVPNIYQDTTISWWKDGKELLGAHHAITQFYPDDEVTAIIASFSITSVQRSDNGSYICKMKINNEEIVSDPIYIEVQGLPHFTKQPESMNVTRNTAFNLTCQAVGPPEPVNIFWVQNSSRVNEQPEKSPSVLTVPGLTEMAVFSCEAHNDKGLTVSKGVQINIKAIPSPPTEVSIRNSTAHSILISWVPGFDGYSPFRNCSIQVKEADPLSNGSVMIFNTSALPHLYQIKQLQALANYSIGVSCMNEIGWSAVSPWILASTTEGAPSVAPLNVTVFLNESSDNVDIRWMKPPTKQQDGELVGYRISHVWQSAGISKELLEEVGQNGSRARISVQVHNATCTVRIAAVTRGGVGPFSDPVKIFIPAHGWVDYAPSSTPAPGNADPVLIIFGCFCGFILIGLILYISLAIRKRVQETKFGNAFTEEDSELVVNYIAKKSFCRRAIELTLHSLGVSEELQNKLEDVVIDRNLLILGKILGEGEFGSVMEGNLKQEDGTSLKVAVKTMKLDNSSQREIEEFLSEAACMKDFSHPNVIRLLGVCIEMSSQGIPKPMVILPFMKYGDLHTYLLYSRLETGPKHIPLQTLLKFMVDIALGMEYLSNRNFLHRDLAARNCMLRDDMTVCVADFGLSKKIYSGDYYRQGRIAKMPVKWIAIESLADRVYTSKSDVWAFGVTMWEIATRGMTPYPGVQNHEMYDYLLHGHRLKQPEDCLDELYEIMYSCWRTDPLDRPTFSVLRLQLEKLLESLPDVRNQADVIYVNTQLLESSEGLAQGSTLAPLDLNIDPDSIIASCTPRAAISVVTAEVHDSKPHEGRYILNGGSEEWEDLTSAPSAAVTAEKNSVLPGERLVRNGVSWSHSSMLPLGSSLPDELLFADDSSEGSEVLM
Measurement Conditions: at 10 µM
Measured Metric: residual activity (%)
The response must be a number in % with no trailing unit.

Consider the reported residual activity for these compounds:
**Query** Give residual activity for the following compound: `Cn1cnc2cc3c(Nc4cccc(Br)c4)ncnc3cc21`
**Result** 58

**Query** Give residual activity for the following compound: `Cc1cncc2cccc(S(=O)(=O)N3CCCN(C(=O)CN)C[C@H]3C)c12`
**Result** 21

**Query** Give residual activity for the following compound: `O=C1Nc2cc(Br)ccc2/C1=C1/Nc2ccccc2/C1=N\O`
**Result** 4

**Query** Give residual activity for the following compound: `C[C@@H](N)[C@H]1CC[C@H](C(=O)Nc2ccncc2)CC1`
**Result** 101

**Query** Give residual activity for the following compound: `Cc1nc2cc3nc(-c4cccs4)cnc3cc2n1C`
**Result** 41

Please examine the following record next.
**Query** Give residual activity for the following compound: `Nc1nc(Nc2ccc(S(N)(=O)=O)cc2)nn1C(=S)Nc1c(F)cccc1F`
**Result** -1
